protocol: small-molecule binders of probe aNOTCH3, primary screen, biochemical, small-molecule microarray, 635/667 nm fluorescence (AID 1120);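 further: probe is a biotin-tagged antibody raised against NOTCH3 rather than NOTCH3 protein; score merges spot fluorescence near 667 nm with spot signal to noise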
experimentalParameters: higher = more signal
parameterMeasured: composite z-score
// no unit, no text: just the number

Problem: Would you kindly share the measured composite z-score for O=C(NC1CC1)[C@@H]1c2ccccc2C(=O)N(Cc2ccccc2C(F)(F)F)[C@H]1c1ccc(CO)cc1 ?
Solution: 0.0194

Problem: Recorded composite z-score of CC(C)(C)OC(=O)CC[C@@]1(C(=O)N2CCOCC2)N=C(c2ccc(OCCCO)cc2)O[C@@H]1c1ccccc1 , please.
Solution: 0.0927

Problem: Tell me the measured composite z-score of O=C(NO)[C@]1(Cc2ccccc2)N=C(c2ccc(OCCCO)cc2)O[C@@H]1c1ccccc1 , please.
Solution: -0.183

Problem: Return reported composite z-score; argument: CCOC(=O)C[C@H]1[C@H](OC(=O)c2ccc(C(=O)c3ccccc3)cc2)[C@@H](NC(=O)Cc2ccc(OC)cc2)c2cc(OCCCO)ccc2N1C(=O)Cc1ccc(OC)cc1
Solution: 0.0397

Problem: Quick check: composite z-score of C=C(C(=O)CC[C@@H](OC(C)=O)c1ccccc1OCCO)C(C)C ?
Solution: -0.0647

Problem: Returns the measured composite z-score for the input compound. Input: COCCCNC(=O)[C@@]1(Cc2ccccc2CN=[N+]=[N-])COC(c2ccc(OCCCO)cc2)=N1
Solution: 0.248

Problem: Return reported composite z-score; argument: COCCCNC(=O)[C@@]1(CCS(=O)(=O)c2ccccc2)N=C(c2ccc(OCCCO)cc2)O[C@H]1c1ccccc1CN=[N+]=[N-]
Solution: 0.448
